Protocol Notes: DSSTox (CPDBAS) Carcinogenic Potency Database Summary SingleCellCall Results
Assay Context: animal chronic carcinogenicity bioassays, CPDB summary call
Active and inactive are the calls of the source.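 How the source made its calls: active means a tumor-causing dose value with its tumor site reported for any sex and species group of a rodent or other animal cancer study; inconclusive means only studies judged inadequate by the national testing program; inactive means tested in at least one study, none positive.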
Metric: outcome

1. CCN(CC)C(=S)S[Te](SC(=S)N(CC)CC)(SC(=S)N(CC)CC)SC(=S)N(CC)CC	inactive
2. Cn1cc[nH]c1=S	active; inactive
3. Oc1cccc2cccnc12.Oc1cccc2cccnc12.[Cu]	inactive
4. Cc1cc(Cl)ccc1N	active
5. CC(C)(Oc1ccc(C2CCCc3ccccc32)cc1)C(=O)O (centres undefined)	active; inactive

Name the recorded outcome for CC(Oc1cc(Cl)ccc1Cl)C(=O)O (centres undefined) . inactive

Name the recorded outcome for CC(C)COC(=O)c1ccc(O)cc1 . inactive

Name the recorded outcome for CC1=CC(=O)CC(C)(C)C1 . active

* * *

Protocol Notes: DSSTox (CPDBAS) Carcinogenic Potency Database Summary SingleCellCall Results
Assay Context: animal chronic carcinogenicity bioassays, CPDB summary call
Calls of active or inactive are those of the source.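 Rule for the calls: active = a tumor-causing dose value with its tumor site reported for any sex and species group of a rodent or other animal cancer study; inconclusive = only studies judged inadequate by the national testing program; inactive = tested in at least one study, none positive.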
Metric: outcome

A selection of reference data follows.
1) C[C@H]([C@H](O)CCC(C)(C)O)[C@H]1CC[C@@]2(O)C3=CC(=O)[C@@H]4C[C@@H](O)[C@@H](O)C[C@]4(C)[C@H]3CC[C@]12C	active; inactive
2) c1ccncc1	active
3) FC(F)=C(F)F	active; inactive
4) Cc1ccc2c(c1[N+](=O)[O-])C(=O)c1ccccc1C2=O	active
5) O=NN(CCCC(F)(F)F)CCCC(F)(F)F	active

Name the recorded outcome for Nc1ccc(-c2ccc(F)cc2)cc1 . active

Name the recorded outcome for O=[N+]([O-])c1ccc(-c2nc(N(CCO)CCO)c3ccccc3n2)s1 . active; inactive

* * *

Protocol Notes: DSSTox (CPDBAS) Carcinogenic Potency Database Summary SingleCellCall Results
Assay Context: animal chronic carcinogenicity bioassays, CPDB summary call
Active and inactive are the calls of the source.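 How the source made its calls: active means a tumor-causing dose value with its tumor site reported for any sex and species group of a rodent or other animal cancer study; inconclusive means only studies judged inadequate by the national testing program; inactive means tested in at least one study, none positive.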
Just give me one of these, please: Yes for active, No for inactive

Solved cases (6 shown):
1. CN(C)c1ccccc1	Yes
2. [O]=[Cr][O][Cr]=[O]	No
3. C[C@]12C=CC(=O)C=C1CC[C@@H]1[C@@H]2[C@@H](O)C[C@@]2(C)[C@H]1CC[C@]2(O)C(=O)CO	Yes
4. c1ccc2sc(SN3CCOCC3)nc2c1	No
5. CC(N)=S	Yes
6. CC(C)CCC[C@@H](C)[C@H]1CC[C@H]2[C@@H]3CC=C4C[C@@H](OC(=O)Cc5ccc(N(CCCl)CCCl)cc5)CC[C@]4(C)[C@H]3CC[C@]12C	Yes

Look up the recorded call for [K+] in this test. Yes

Look up the recorded call for CC(=O)Nc1ccc(S(=O)(=O)O)c2cc(S(=O)(=O)O)c(N=Nc3ccc(N=Nc4ccc(S(=O)(=O)O)cc4)c4ccc(S(=O)(=O)O)cc34)c(O)c12 in this test. No

* * *

Protocol Notes: DSSTox (CPDBAS) Carcinogenic Potency Database Summary SingleCellCall Results
Assay Context: animal chronic carcinogenicity bioassays, CPDB summary call
Active and inactive are the calls of the source.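 Rule for the calls: active = a tumor-causing dose value with its tumor site reported for any sex and species group of a rodent or other animal cancer study; inconclusive = only studies judged inadequate by the national testing program; inactive = tested in at least one study, none positive.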
Just give me one of these, please: active, inactive

1. COP(=S)(OC)Oc1ccc(SC)c(C)c1	inactive
2. CN(CCO)N=O	active
3. CCOCCc1c(-c2ccccc2)nc(N)n2ncnc12	active

Look up the recorded call for Clc1ccc2c(c1)Oc1ccc(Cl)cc1O2 in this test. inactive

Look up the recorded call for C[C@H]1C(=O)O[C@@H]2CCN3CC=C(COC(=O)[C@](C)(O)[C@]1(C)O)[C@H]23 in this test. active

Look up the recorded call for O=[N+]([O-])c1ccc(Oc2ccc(Cl)cc2Cl)cc1 in this test. active

Look up the recorded call for NC(N)=Nc1nc(CSCCNc2nsnc2N)cs1 in this test. active

Look up the recorded call for O=CNNC=O in this test. active
